# Test system: 415267-285-R-J2-PDC complex spheroid viability
# experiment notes: Anticancer human tumor 415267-285-R-J2-PDC patient-derived breast carcinoma cell line growth inhibition [POLQ]; active means viability on the fitted dose curve at most 10% of control; inactive means the rest
# measurement context: second compound 0.1 µM; first compound 1 µM
Outcome codes: t for active, f for inactive

{"columns": ["compound", "label class"],
 "data": [
  ["COc1cc2cc(C(=O)CCC(=O)O)sc2cc1OC + Cc1cccc(N(C)C(=O)C2C(O)CCN2c2nc(C)cc(C(F)(F)F)c2C#N)c1", "f"],
  ["C#Cc1c(F)ccc2cc(O)cc(-c3ncc4c(N5CC6CCC(C5)N6)nc(OCC56CCCN5CC(F)C6)nc4c3F)c12 (stereo not given) + COC1C(OC(N)=O)C(O)C(Oc2ccc3c(O)c(NC(=O)c4ccc(O)c(CC=C(C)C)c4)c(=O)oc3c2C)OC1(C)C", "f"],
  ["COc1ccc([C@@H](O)c2cc(-c3ncnc4cc(N5CCOCC5)ccc34)c(F)cc2Cl)nn1 + Nc1ccc(C#CCN(C(=O)Cc2ncc(C(F)(F)F)cc2C(F)(F)F)c2ccc(F)cc2)nn1", "f"],
  ["COc1cc(C2c3cc4c(cc3C(OC3OC5COC(C)OC5C(O)C3O)C3COC(=O)C23)OCO4)cc(OC)c1O (stereo not given) + Nc1ccc(C#CCN(C(=O)Cc2ncc(C(F)(F)F)cc2C(F)(F)F)c2ccc(F)cc2)nn1", "t"],
  ["C#Cc1c(F)ccc2cc(O)cc(-c3ncc4c(N5CC6CCC(C5)N6)nc(OCC56CCCN5CC(F)C6)nc4c3F)c12 (stereo not given) + Nc1ccc(C#CCN(C(=O)Cc2ncc(C(F)(F)F)cc2C(F)(F)F)c2ccc(F)cc2)nn1", "f"],
  ["CCc1cc2c(N3CCc4c(cc(Cn5ccnc5)cc4-c4cn(C)nc4C(F)(F)F)C3=O)cc(C)nc2c(OC)n1 + COC1C(OC(N)=O)C(O)C(Oc2ccc3c(O)c(NC(=O)c4ccc(O)c(CC=C(C)C)c4)c(=O)oc3c2C)OC1(C)C", "f"],
  ["C=CC(=O)N1CCN(c2nc(=O)n(-c3c(C)ccnc3C(C)C)c3nc(-c4c(O)cccc4F)c(F)cc23)C(C)C1 (stereo not given) + Nc1ccc(C#CCN(C(=O)Cc2ncc(C(F)(F)F)cc2C(F)(F)F)c2ccc(F)cc2)nn1", "f"],
  ["COc1cccc(OCCCN)c1-c1cc(Nc2cnc(C#N)cn2)n[nH]1 + Nc1ccc(C#CCN(C(=O)Cc2ncc(C(F)(F)F)cc2C(F)(F)F)c2ccc(F)cc2)nn1", "t"],
  ["COc1cccc2c1C(=O)c1c(O)c3c(c(O)c1C2=O)CC(O)(C(=O)CO)CC3OC1CC(N)C(O)C(C)O1 (stereo not given) + Nc1ccc(C#CCN(C(=O)Cc2ncc(C(F)(F)F)cc2C(F)(F)F)c2ccc(F)cc2)nn1", "t"],
  ["C=CC(=O)N1CCN(c2nc(=O)n(-c3c(C)ccnc3C(C)C)c3nc(-c4c(O)cccc4F)c(F)cc23)C(C)C1 (stereo not given) + COC1C(OC(N)=O)C(O)C(Oc2ccc3c(O)c(NC(=O)c4ccc(O)c(CC=C(C)C)c4)c(=O)oc3c2C)OC1(C)C", "f"]
]}

###

# Tested on: 415267-285-R-J2-PDC complex spheroid viability
# experiment notes: Anticancer human tumor 415267-285-R-J2-PDC cell line growth inhibition [POLQ];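 further: luminescence used as stand-in measure of viable cells; spheroids exposed to compounds for one week before readout; 100% = DMSO vehicle control viability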
# measurement context: second compound 10 µM; first compound 0.1 µM; hits give low values
Listed below: viability, T/C values for each entry.

{"columns": ["compound", "viability, T/C"],
 "data": [
  ["CCc1cc2c(N3CCc4c(cc(Cn5ccnc5)cc4-c4cn(C)nc4C(F)(F)F)C3=O)ccnc2c(OC)n1 + COC1C(OC(N)=O)C(O)C(Oc2ccc3c(O)c(NC(=O)c4ccc(O)c(CC=C(C)C)c4)c(=O)oc3c2C)OC1(C)C", "89.8%"],
  ["CCCS(=O)(=O)Nc1ccc(F)c(C(=O)c2c[nH]c3ncc(-c4ccc(Cl)cc4)cc23)c1F + Nc1ccc(C#CCN(C(=O)Cc2ncc(C(F)(F)F)cc2C(F)(F)F)c2ccc(F)cc2)nn1", "105%"],
  ["C=CC(=O)N1CCN(c2nc(=O)n(-c3c(C)ccnc3C(C)C)c3nc(-c4c(O)cccc4F)c(F)cc23)C(C)C1 (stereo not given) + Nc1ccc(C#CCN(C(=O)Cc2ncc(C(F)(F)F)cc2C(F)(F)F)c2ccc(F)cc2)nn1", "112%"],
  ["CCc1cc2c(N3CCc4c(cc(Cn5ccnc5)cc4-c4cn(C)nc4C(F)(F)F)C3=O)cc(C)nc2c(OC)n1 + Cc1cccc(N(C)C(=O)C2C(O)CCN2c2nc(C)cc(C(F)(F)F)c2C#N)c1", "95.7%"],
  ["COc1cc2cc(C(=O)CCC(=O)O)sc2cc1OC + COC1C(OC(N)=O)C(O)C(Oc2ccc3c(O)c(NC(=O)c4ccc(O)c(CC=C(C)C)c4)c(=O)oc3c2C)OC1(C)C", "109%"]
]}

Values from PubChem BioAssay AID1963847
